The reader will find CYP3A4 IC50 (half-maximal inhibitory concentration) measurements below, all made with CYP3A4 (Homo sapiens, UniProt P08684).
Sequence (P08684 whole entry): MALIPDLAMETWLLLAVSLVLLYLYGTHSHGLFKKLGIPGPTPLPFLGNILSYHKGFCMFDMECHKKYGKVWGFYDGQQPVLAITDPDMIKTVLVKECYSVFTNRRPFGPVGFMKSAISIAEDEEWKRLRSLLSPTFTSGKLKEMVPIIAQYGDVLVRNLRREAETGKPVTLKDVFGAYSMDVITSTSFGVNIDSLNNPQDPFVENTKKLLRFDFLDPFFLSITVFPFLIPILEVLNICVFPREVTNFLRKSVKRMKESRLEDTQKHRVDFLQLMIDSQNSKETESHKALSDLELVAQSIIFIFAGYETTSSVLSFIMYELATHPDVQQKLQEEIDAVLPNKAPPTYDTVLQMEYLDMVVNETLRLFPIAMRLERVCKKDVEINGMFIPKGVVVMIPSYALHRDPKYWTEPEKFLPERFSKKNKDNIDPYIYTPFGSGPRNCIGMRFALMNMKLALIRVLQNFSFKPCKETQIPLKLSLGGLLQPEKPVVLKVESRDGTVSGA
Counter-ions that a name gives are not always drawn.

The examples below pair each entry with its known result.
-- ask Any idea what its CYP3A4 IC50 (half-maximal inhibitory concentration) is? The compound is CN(C)CCN(Cc1ccccc1)c1ccccn1 [Tripelennamine citrate]
-- reply Inactive

-- ask Next record, please: COc1ccc(-c2coc3cc(O)ccc3c2=O)cc1 [Formononetin]
-- reply Inactive

-- ask Follow-up item: Nc1c(Br)cc(Br)c2c1C(=O)c1ccccc1C2=O [1-Amino-2,4-dibromoanthraquinone]
-- reply Inactive

-- ask Query c1ccc2c(c1)Sc1ccccc1N2CC1CN2CCC1CC2 (centres unmarked) [Mequitazine] next
-- reply Inactive

-- ask And the next one, CCCCN(CCCC)CCCOC(=O)c1ccc(N)cc1 [Butacaine] ?
-- reply Inactive

Provide CYP3A4 IC50 (half-maximal inhibitory concentration) for all items below, preserving their order.
1. CCN(CC)CCOc1ccc(Cc2ccccc2)cc1.Cl [Tesmilifene hydrochloride]
2. Brc1c(Br)c(Br)c(Br)c(Br)c1Br [Hexabromobenzene]
3. Brc1cc2ccccc2c2ccccc12 [9-Bromophenanthrene]
4. COc1ccc(CN(CCN(C)C)c2ccccn2)cc1 [Pyrilamine maleate]
5. CN1CCCC(CC2c3ccccc3Sc3ccccc32)C1 (centres unmarked) [Metixene hydrochloride]

-- reply
14.21 ± 3.96 (44 ± 9) µM
Inactive
Inactive
Inactive
Inactive

Could you tell me CYP3A4 IC50 (half-maximal inhibitory concentration) for each of these compounds? They are listed below.
1. CC(=O)OC1(c2ccccc2)CCN(CCc2ccccc2)CC1
2. c1ccc2c(c1)-c1ccc3ccc4cccc5cc-2c1c3c45 [Indeno(1,2,3-cd)pyrene]
3. Cc1ccc2c(c1N)C(=O)c1ccccc1C2=O [1-Amino-2-methylanthraquinone]
4. CCOC(=O)COc1ccc2c(c1)C[C@@H](NC[C@H](O)c1cccc(Cl)c1)CC2 [SR58611]
5. COC(=O)C1=C(C)NC(C)=C(C(=O)OCCN2CCN(C(c3ccccc3)c3ccccc3)CC2)C1c1cccc([N+](=O)[O-])c1 (centres unmarked) [Manidipine]
6. NC(=O)C(c1ccccc1)(c1ccccc1)[C@@H]1CCN(CCc2ccc3c(c2)CCO3)C1 [Darifenacin hydrobromide]
7. COc1ccc(CN(CCN(C)C)c2ncccn2)cc1 [Thonzylamine hydrochloride]

-- reply
40.89 ± 0 (145 ± 9) µM
Inactive
0.32 ± 0.14 (91 ± 19) µM
Inactive
Inactive
Inactive
Inactive

src = paper PMC12155096
